Kindly supply the reported residual activity values for the records listed here.
target: EPHB3 (human) (UniProt P54753); experiment: radiometric filter-binding kinase assay; details: compound 1.0 µM
Sequence (P54753 whole entry, looked up): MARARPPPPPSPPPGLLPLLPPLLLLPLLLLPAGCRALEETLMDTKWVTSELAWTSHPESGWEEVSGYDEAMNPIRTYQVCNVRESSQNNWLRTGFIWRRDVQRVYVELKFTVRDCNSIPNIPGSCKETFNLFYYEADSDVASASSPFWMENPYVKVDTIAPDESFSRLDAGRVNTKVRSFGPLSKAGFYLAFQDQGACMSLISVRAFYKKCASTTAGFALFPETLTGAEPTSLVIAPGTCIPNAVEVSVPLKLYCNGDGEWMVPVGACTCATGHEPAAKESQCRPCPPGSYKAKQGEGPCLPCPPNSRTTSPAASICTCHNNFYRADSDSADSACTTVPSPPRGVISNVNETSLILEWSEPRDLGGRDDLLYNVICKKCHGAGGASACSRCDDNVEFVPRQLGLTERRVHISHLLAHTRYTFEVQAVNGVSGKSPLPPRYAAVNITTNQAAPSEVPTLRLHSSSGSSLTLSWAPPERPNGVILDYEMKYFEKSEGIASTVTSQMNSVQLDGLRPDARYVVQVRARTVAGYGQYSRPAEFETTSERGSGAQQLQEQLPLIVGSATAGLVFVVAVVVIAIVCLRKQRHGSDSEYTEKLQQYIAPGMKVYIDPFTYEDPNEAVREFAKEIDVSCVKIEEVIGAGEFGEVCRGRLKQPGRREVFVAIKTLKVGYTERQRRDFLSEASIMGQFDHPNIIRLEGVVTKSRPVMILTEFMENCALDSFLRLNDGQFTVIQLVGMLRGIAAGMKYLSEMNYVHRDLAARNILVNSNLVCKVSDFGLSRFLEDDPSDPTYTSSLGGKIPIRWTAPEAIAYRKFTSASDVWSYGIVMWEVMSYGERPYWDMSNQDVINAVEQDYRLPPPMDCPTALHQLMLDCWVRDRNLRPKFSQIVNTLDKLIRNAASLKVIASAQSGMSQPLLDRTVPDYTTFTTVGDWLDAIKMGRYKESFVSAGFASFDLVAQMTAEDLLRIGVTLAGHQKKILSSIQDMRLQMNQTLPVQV
Output spec: scalar in %, unitless text.

Value of residual activity reported for the compound `O=C(Nc1nc2cc(C(F)(F)F)cc(NC3CC3)n2n1)c1cccnc1` is 99

In plain terms, `NC1(c2ccc(-c3nc4ccn5c(=O)[nH]nc5c4cc3-c3ccccc3)cc2)CCC1` has a documented residual activity of 99

Record `O=C(Nc1ccccc1-c1cn2c(CN3CCNCC3)csc2n1)c1cnc2ccccc2n1` . Reported residual activity: 99

// residual activity lookup, compound = `COc1cc(O)c2c(c1)/C=C/C[C@H](O)[C@H](O)C(=O)/C=C\C[C@H](C)OC2=O` , result: 100

compound `NC(=O)c1c(NC(=O)C2CC2)sc2c1CCCC2` , residual activity observed: 115

Entry `O=C1NC(=S)N[C@@H]1Cc1c[nH]c2ccccc12` , residual activity reported as 81

Field residual activity (entry `C[C@H]1CCCC(=O)CCC/C=C/c2cc(O)cc(O)c2C(=O)O1` ) reads 85

Input O=C1Nc2nc(-c3c(O)cccc3OCC3CC3)cc(C3CCCNC3)c2CO1 (stereo unspecified) . Output residual activity: 89

`NC(=O)c1ccc(-c2ccc(Oc3cncc4sc(-c5nn[nH]n5)cc34)cc2)cc1` has a reported residual activity of 93

Entry under test: `NC(=O)Nc1ccc2c(c1)/C(=C/c1cc(-c3cccnc3)c[nH]1)C(=O)N2` . Its residual activity was 90

Per the record, `NC(=O)c1cc2c(-c3cccc(-c4ccccc4)c3)cnc(N)c2s1` has residual activity of 113

Notebook: O=C(NOCC(O)CO)c1ccc(F)c(F)c1Nc1ccc(I)cc1Cl (stereo unspecified) , residual activity read as 113

Input `CC(C)(C#N)c1ccc(N2C(=O)OCc3cnc4ccc(-c5cnc6ccccc6c5)cc4c32)cc1` . Output residual activity: 116

Notebook: `O=C(NCCCNc1nc(Nc2cccc(CN3CCOCC3)c2)ncc1C1CC1)C1CCC1` , residual activity read as 101

Record `CCn1c(-c2nonc2N)nc2cncc(CNC3CCNCC3)c21` . Reported residual activity: 99

Entry CNC(=O)C1[C@H]2O[C@@](C)([C@@H]1N)n1c3ccccc3c3c4c(c5c6ccccc6n2c5c31)C(=O)NC4 (stereo partly specified) ; residual activity = 83

Looking up `O=C(Nc1cccnc1)c1cc(-c2ccnc(F)c2)ccc1OCc1ccccc1` , I found its residual activity recorded as 121

The recorded residual activity for `CCCCCc1ccc(/C=C/[C@H](O)[C@@H](CO)NC)cc1` is 100

Recorded result, `COc1cc2ncn(-c3cc(OCc4ccccc4S(C)(=O)=O)c(C#N)s3)c2cc1OC` , residual activity: 40

Please fill in: residual activity reported for `Cc1ccc(=O)n(-c2ccccc2)c1` = 96

The compound listed as `Cc1cccc(-c2nn(C(=S)Nc3ccccc3)cc2-c2ccnc3ccccc23)n1` shows residual activity equal to 104

`C=CC(=O)N1CCC[C@@H](n2nc(-c3ccc(Oc4ccccc4)cc3)c3c(N)ncnc32)C1` has a reported residual activity of 96

Record C=C1C(=O)OC2C1CC/C(C)=C/CCC1(C)OC21 (stereo unspecified) , field residual activity: 95

So for `Cn1c(=O)c2c(ncn2C)n(C)c1=O` , the logged residual activity turned out to be 97

Record `O=C(NOC[C@H](O)CO)c1ccc(F)c(F)c1Nc1ccc(I)cc1Cl` . Reported residual activity: 101

In plain terms, `O=c1c(O)c(-c2ccc(O)c(O)c2)oc2cc(O)c(O)c(O)c12` has a documented residual activity of 93

Entry under test: `FC(F)(F)c1ccc(-c2ccc(Oc3cncc4sc(-c5nn[nH]n5)cc34)cc2)cc1` . Its residual activity was 122

Entry `Oc1ccc2ccccc2c1SSc1c(O)ccc2ccccc12` ; residual activity = 86

Entry under test: `NC(=O)c1cc(-c2ccnc(NC3CCCCC3)c2)nc(N2CCNCC2)c1` . Its residual activity was 124

Sure, the documented residual activity for `CNc1nc(-c2ccc3c(N)n[nH]c3c2)cc(N2C[C@@H](C(=O)NC3CCCCC3)CC[C@H]2C)n1` is 120

Lab note: `N#Cc1c(C2CCNCC2)cc(-c2c(O)cccc2OCC2CC2)nc1N` gave residual activity of 94

Form field residual activity, entry `Cc1cc(NC(=O)c2cccc(NC(=O)/C=C/CN(C)C)c2)ccc1Nc1nccc(-c2cccnc2)n1` : 105

Entry `Cc1ccc(-c2ccc3c(ccc4sc5c(c43)NC[C@@H](C)NC5=O)n2)cn1` ; residual activity = 88

response.value for `O=C(N[C@@H](COc1ccc2[nH]c(=O)[nH]c2c1)c1ccccc1)c1cccn(Cc2ccc(F)c(F)c2)c1=O` (field: residual activity) = 119

Entry `CCc1cncnc1N1CCN(Cc2nc3cc(C(F)(F)F)ccc3[nH]2)CC1` ; residual activity = 139

GET /value?item= `NCC(=O)Nc1ccc(-n2nc(C(F)(F)F)cc2-c2ccc3c(ccc4ccccc43)c2)cc1` &field=residual activity returns 72

The measured residual activity associated with `CN1C(=O)[C@@H](Cc2c[nH]c3ccccc23)NC1=S` reads 112

Record summary for `c1ccc2c(-c3cnn4cc(-c5ccc(N6CCNCC6)cc5)cnc34)ccnc2c1` : reported residual activity = 75

Form: compound = `Cc1ccc(Sc2cnc(Nc3cccc(Br)n3)s2)cc1C(=O)N1CCN(C(=O)CN)CC1` ; residual activity = 20

The compound `COc1ccc(N(C(=O)Nc2c(C)cccc2C)c2cc(Nc3ccc(N4CCN(C)CC4)cc3)ncn2)c(OC)c1` showed residual activity equal to 18

The measured residual activity associated with `COc1cc(C(=O)N2CCOCC2)c(F)cc1Nc1ncc(C(F)(F)F)c(NC2CC2)n1` reads 91
